Tested on: SKOV3 cells
Measurement Description: Inhibition of cellular proliferation (sulforhodamine B staining)
Stated Conditions: read-out: Cellular Growth Inhibition IC50 SKOV3 Oxic; 24 hour exposure entirely under oxic conditions, washed, further 4 days
Result Type: log10 IC50 (log10 of the value in µM)
# values: log10(IC50), units µM

Consider the worked cases shown below.
Challenge: Supply measured log10 IC50 of "CN(C)C/C=C/C(=O)Nc1cc2c(Nc3ccc(Cl)c(Br)c3)ncnc2cn1" in your reply.
Response given: -0.52

Challenge: // Input: "Cn1cnc([N+](=O)[O-])c1C[N+](C)(C)C/C=C/C(=O)Nc1cc2c(Nc3ccc(Br)c(Br)c3)ncnc2cn1.[Br-]" . Output its log10 IC50 only.
Response given: 1.46

Others:
Challenge: Read off the recorded log10 IC50 for "Cn1cnc([N+](=O)[O-])c1C[N+](C)(C)C/C=C/C(=O)Nc1cc2c(Nc3ccc(Cl)c(Cl)c3)ncnc2cn1"
Response given: 1.60

Challenge: Kindly indicate its recorded log10 IC50. Item: "C#Cc1cc(Nc2ncnc3cnc(NC(=O)/C=C/C[N+](C)(C)Cc4c([N+](=O)[O-])ncn4C)cc23)ccc1F"
Response given: 2.29

Challenge: Hello, please tell me recorded log10 IC50 for this one: "CN(C)C/C=C/C(=O)Nc1cc2c(Nc3ccc(Br)c(Cl)c3)ncnc2cn1"
Response given: -0.70

Challenge: Return value of log10 IC50 for input "CN(C)C/C=C/C(=O)Nc1cc2c(Nc3ccc(Cl)c(Cl)c3)ncnc2cn1" , no commentary.
Response given: -0.44

Challenge: Please give measured log10 IC50 of the following entry: "C#Cc1cc(Nc2ncnc3cnc(NC(=O)/C=C/C[N+](C)(C)Cc4c([N+](=O)[O-])ncn4C)cc23)ccc1Cl"
Response given: 1.67

###

Tested on: H1975 tumours
Stated Conditions: H1975 xenograft, q3dx4, intraperitoneal, lactate buffer pH 4
Recorded Drug related deaths for the following molecules

Challenge: Give the observed Drug related deaths of CN(C)C/C=C/C(=O)Nc1cc2c(Nc3ccc(OCc4ccccn4)c(Cl)c3)ncnc2cn1 [Compound 3] for H1975 tumours.
Response given: 0

###

Tested on: SKOV3 cells
Measurement Description: Inhibition of cellular proliferation (sulforhodamine B staining)
Stated Conditions: fold change in intra-experimental IC50, 4 hours anoxia relative to oxic only
Please use TRUE whenever SKOV3 HCR (Hypoxic Cytotoxicity Ratio) is not below 0.9, and FALSE whenever it is.

Challenge: Confirm if SKOV3 HCR (Hypoxic Cytotoxicity Ratio) reported for the compound "CN(C)C/C=C/C(=O)Nc1cc2c(Nc3ccc(Br)c(Cl)c3)ncnc2cn1" is 0.9 or above.
Response given: FALSE

Challenge: Does the reported SKOV3 HCR (Hypoxic Cytotoxicity Ratio) for "Cn1cnc([N+](=O)[O-])c1C[N+](C)(C)C/C=C/C(=O)Nc1cc2c(Nc3ccc(OCc4cccc(Cl)c4)c(Cl)c3)ncnc2cn1" fall at or above the 0.9 mark?
Response given: TRUE

Challenge: Does "Cn1cnc([N+](=O)[O-])c1C[N+](C)(C)C/C=C/C(=O)Nc1cc2c(Nc3ccc(Br)c(Cl)c3)ncnc2cn1.[Br-]" have a reported SKOV3 HCR (Hypoxic Cytotoxicity Ratio) of at least 0.9?
Response given: TRUE

As a next step, examine the compound that follows.
Challenge: Decide: SKOV3 HCR (Hypoxic Cytotoxicity Ratio) of "C#Cc1cc(Nc2ncnc3cnc(NC(=O)/C=C/C[N+](C)(C)Cc4c([N+](=O)[O-])ncn4C)cc23)ccc1F" >= 0.9?
Response given: TRUE

###

Parameter: Weight Loss Nadir (%). Scope: all listed entries.
Tested on: H1975 tumours
Stated Conditions: H1975 xenograft, q3dx4, intraperitoneal; mean nadir relative to day 0 weight
Provide the reading as a plain figure in %.

Some molecules with recorded Weight Loss Nadir (%):
Challenge: Indicate the recorded Weight Loss Nadir (%) value for this molecule: "Cn1cnc([N+](=O)[O-])c1C[N+](C)(C)C/C=C/C(=O)Nc1cc2c(Nc3ccc(Br)c(Br)c3)ncnc2cn1.[Br-]"
Response given: −2.7

Challenge: Return the recorded Weight Loss Nadir (%) value; entry: "Cn1cnc([N+](=O)[O-])c1C[N+](C)(C)C/C=C/C(=O)Nc1cc2c(Nc3ccc4c(cnn4Cc4cccc(F)c4)c3)ncnc2cn1"
Response given: −4.1

Challenge: Consider the molecule "CN(C)C/C=C/C(=O)Nc1cc2c(Nc3ccc4c(cnn4Cc4cccc(F)c4)c3)ncnc2cn1" and give its recorded Weight Loss Nadir (%).
Response given: −7.9

---
Challenge: Tell me measured Weight Loss Nadir (%) for "CN(C)C/C=C/C(=O)Nc1cc2c(Nc3ccc(OCc4ccccn4)c(Cl)c3)ncnc2cn1" please.
Response given: −4.7

Challenge: For the molecule "CN(C)C/C=C/C(=O)Nc1cc2c(Nc3ccc(OCc4cccc(Cl)c4)c(Cl)c3)ncnc2cn1" , give its reported Weight Loss Nadir (%).
Response given: −3.6

Challenge: Please look at this molecule and report its Weight Loss Nadir (%): "Cn1cnc([N+](=O)[O-])c1C[N+](C)(C)C/C=C/C(=O)Nc1cc2c(Nc3ccc(OCc4cccc(Cl)c4)c(Cl)c3)ncnc2cn1"
Response given: −7.8

Challenge: // fetch Weight Loss Nadir (%) given entry "C#Cc1cc(Nc2ncnc3cnc(NC(=O)/C=C/C[N+](C)(C)Cc4c([N+](=O)[O-])ncn4C)cc23)ccc1F"
Response given: −4.4

###

Below is a list of entries, each paired with its recorded pIC50 value.
Tested on: H1975 cells
Measurement Description: Inhibition of cellular proliferation (sulforhodamine B staining)
Stated Conditions: read-out: Cellular Growth Inhibition IC50 H1975 Oxic; 24 hour exposure entirely under oxic conditions, washed, further 4 days
In plain terms, pIC50 is the concentration in mol/L turned into minus its base-10 logarithm.

Look over these answered cases.
Challenge: Answer with the recorded pIC50 for the compound listed here: "C#Cc1cc(Nc2ncnc3cnc(NC(=O)/C=C/C[N+](C)(C)Cc4c([N+](=O)[O-])ncn4C)cc23)ccc1Cl"
Response given: 4.74

Challenge: Hello, please tell me recorded pIC50 for this one: "Cc1nc([N+](=O)[O-])c(C[N+](C)(C)C/C=C/C(=O)Nc2cc3c(Nc4ccc5c(cnn5Cc5cccc(F)c5)c4)ncnc3cn2)n1C"
Response given: 4.70

Challenge: Please look at this compound and report its pIC50: "Cn1cnc([N+](=O)[O-])c1C[N+](C)(C)C/C=C/C(=O)Nc1cc2c(Nc3ccc(Br)c(Br)c3)ncnc2cn1.[Br-]"
Response given: 4.82

Challenge: Indicate its recorded pIC50; the compound in question is "CN(C)C/C=C/C(=O)Nc1cc2c(Nc3ccc(Br)c(Br)c3)ncnc2cn1"
Response given: 6.74

New cases:
Challenge: Please supply the value of reported pIC50 for the item "Cn1cnc([N+](=O)[O-])c1C[N+](C)(C)C/C=C/C(=O)Nc1cc2c(Nc3ccc(Cl)c(Cl)c3)ncnc2cn1"
Response given: 4.49

Challenge: # return recorded pIC50 for entry "CN(C)C/C=C/C(=O)Nc1cc2c(Nc3ccc(Br)c(Cl)c3)ncnc2cn1"
Response given: 6.82

Challenge: Give reported pIC50 value for "Cn1cnc([N+](=O)[O-])c1C[N+](C)(C)C/C=C/C(=O)Nc1cc2c(Nc3ccc(OCc4ccccn4)c(Cl)c3)ncnc2cn1"
Response given: 4.59

Challenge: // Input: "Cn1cnc([N+](=O)[O-])c1C[N+](C)(C)C/C=C/C(=O)Nc1cc2c(Nc3ccc4c(cnn4Cc4cccc(F)c4)c3)ncnc2cn1" . Output its pIC50 only.
Response given: 4.04

###

Test system: A431 cells
Measurement Description: Inhibition of cellular proliferation (sulforhodamine B staining)
Stated Conditions: read-out: Cellular Growth Inhibition IC50 A431 Oxic; 24 hour exposure entirely under oxic conditions, washed, further 4 days
Let's look at some compounds and their measured pIC50.
A value of pIC50 is the negative decimal logarithm of a concentration given in moles per litre.

// known answers, use as guide
Challenge: # return pIC50 of "CN(C)C/C=C/C(=O)Nc1cc2c(Nc3ccc(Cl)c(Br)c3)ncnc2cn1" (system: A431 cells)
Response given: 8.05

Challenge: Under A431 cells: report pIC50 of "CN(C)C/C=C/C(=O)Nc1cc2c(Nc3ccc(Br)c(Br)c3)ncnc2cn1" .
Response given: 8.30

Continuing:
Challenge: Answer briefly: pIC50 recorded on A431 cells for "CN(C)C/C=C/C(=O)Nc1cc2c(Nc3ccc(Cl)c(Cl)c3)ncnc2cn1"
Response given: 8.05

###

Tested on: H1975 tumours
Stated Conditions: H1975 xenograft, q3dx4, intraperitoneal, lactate buffer pH 4
Result Type: Drug related deaths
Provide a numeric answer; units are not to be included.

// known answers, use as guide
Challenge: Specify reported Drug related deaths for the compound shown: Cn1cnc([N+](=O)[O-])c1C[N+](C)(C)C/C=C/C(=O)Nc1cc2c(Nc3ccc(Cl)c(Cl)c3)ncnc2cn1 [Compound 16]
Response given: 0

Challenge: # return recorded Drug related deaths for entry CN(C)C/C=C/C(=O)Nc1cc2c(Nc3ccc4c(cnn4Cc4cccc(F)c4)c3)ncnc2cn1 [Compound 2]
Response given: 0

Challenge: Answer with reported Drug related deaths of Cn1cnc([N+](=O)[O-])c1C[N+](C)(C)C/C=C/C(=O)Nc1cc2c(Nc3ccc(OCc4cccc(Cl)c4)c(Cl)c3)ncnc2cn1 [Compound 12]
Response given: 0

Challenge: Give reported Drug related deaths value for Cn1cnc([N+](=O)[O-])c1C[N+](C)(C)C/C=C/C(=O)Nc1cc2c(Nc3ccc4c(cnn4Cc4cccc(F)c4)c3)ncnc2cn1 [Compound 13]
Response given: 0

Challenge: Output Drug related deaths of Cn1cnc([N+](=O)[O-])c1C[N+](C)(C)C/C=C/C(=O)Nc1cc2c(Nc3ccc(OCc4ccccn4)c(Cl)c3)ncnc2cn1 [Compound 15]
Response given: 0

New cases:
Challenge: State, in one line, measured Drug related deaths of CN(C)C/C=C/C(=O)Nc1cc2c(Nc3ccc(OCc4cccc(Cl)c4)c(Cl)c3)ncnc2cn1 [Compound 1]
Response given: 0

Challenge: Specify reported Drug related deaths for the compound shown: Cn1cnc([N+](=O)[O-])c1C[N+](C)(C)C/C=C/C(=O)Nc1cc2c(Nc3ccc(Br)c(Br)c3)ncnc2cn1.[Br-] [Compound 19]
Response given: 1

Challenge: Please indicate Drug related deaths recorded for C#Cc1cc(Nc2ncnc3cnc(NC(=O)/C=C/C[N+](C)(C)Cc4c([N+](=O)[O-])ncn4C)cc23)ccc1F [Compound 20]
Response given: 0

Challenge: For the compound CN(C)C/C=C/C(=O)Nc1cc2c(Nc3ccc(Cl)c(Br)c3)ncnc2cn1 [Compound 5] , give its reported Drug related deaths.
Response given: 1

Challenge: Using known records, supply Drug related deaths for CN(C)C/C=C/C(=O)Nc1cc2c(Nc3ccc(Cl)c(Cl)c3)ncnc2cn1 [Compound 4]
Response given: 0

Challenge: Let me know recorded Drug related deaths for C#Cc1cc(Nc2ncnc3cnc(NC(=O)/C=C/CN(C)C)cc23)ccc1F [Compound 8] , thanks.
Response given: 0

Challenge: Give me measured Drug related deaths, please, for this compound: CN(C)C/C=C/C(=O)Nc1cc2c(Nc3ccc(Br)c(Br)c3)ncnc2cn1 [Compound 7]
Response given: 1
